system: HepG-2 tumor cell line; test: SRB cytotoxicity assay, HepG-2; format: cell-based, human; settings: Homo sapiens, HepG2; SRB method; mean ± s, n=3
pIC50: −log10 of the molar value.
Kindly supply the reported pIC50 values for the records listed here.

Data request: Which value of pIC50 has been reported for CSC1(Cc2ccccc2)NC(=O)C(CO)NC1=O (stereo not drawn) in the records?
Data returned: < 4.00

Data request: Given CN1C(=O)[C@]23CC4=CC=C[C@H](O)[C@H]4N2C(=O)[C@@]1(CO)SS3 , state its recorded pIC50.
Data returned: 6.68

Data request: Need pIC50 of C=C1C(=O)N2C3C(=CC=CC3OC(C)=O)CC2(O)C(=O)N1C (stereo not drawn) , thanks.
Data returned: < 4.00
